test: Binding affinity to sigma 2 receptor in guinea pig brain membranes; format: cell membranes, Cavia porcellus, Membrane
pKi: −log10 of the molar value.
result-type: pKi

input: # get_value(readout='pKi', item= CCCc1ccc2c(c1)sc(=O)n2CCN1CCCCCC1 )
output: < 6.00

###

target: Sigma non-opioid intracellular receptor 1 (Rattus norvegicus, UniProt Q9R0C9); experiment: Displacement of [3H](+)-pentazocine from sigma 1 receptor in rat liver membranes
Sequence (Q9R0C9 whole entry): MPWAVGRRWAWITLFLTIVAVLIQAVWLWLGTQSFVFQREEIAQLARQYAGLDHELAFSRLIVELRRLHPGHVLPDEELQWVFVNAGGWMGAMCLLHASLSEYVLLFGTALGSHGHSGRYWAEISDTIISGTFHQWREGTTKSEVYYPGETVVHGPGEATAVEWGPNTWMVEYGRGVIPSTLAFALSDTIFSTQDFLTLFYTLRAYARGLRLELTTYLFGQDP
# Ki per entry
Supply the numeric figure in nM, leaving out any unit text.

// below: answered compounds
smiles_code=CCCc1ccc2c(c1)sc(=O)n2CCCCN1CCCCCC1 numeric_value=6.1
smiles_code=CCCc1ccc2c(c1)sc(=O)n2CCN1CCCCCC1 numeric_value=1.6
smiles_code=CCCc1ccc2c(c1)sc(=O)n2CCCCCCN1CCCCCC1 numeric_value=6.3
smiles_code=CCCCc1ccc2c(c1)sc(=O)n2CCCCCCN1CCCCCC1 numeric_value=12
smiles_code=O=c1sc2ccccc2n1CCCCCN1CCCCCC1 numeric_value=7

// moving on: another record for Ki
input: # get_value(readout='Ki', item= CCCC(=O)c1ccc2c(c1)sc(=O)n2CCCCCCN1CCCCCC1 )
output: 10.8

###

species on record: Rattus norvegicus; experiment: Selectivity ratio of Ki for sigma 2 receptor in rat liver membranes to Ki for sigma 1 receptor in rat liver membranes; assay type: cell membranes; conditions: Membrane
Threshold check on Ratio Ki: strictly below 3 is Condition met; on or above 3 is Condition not met.

Use these answered entries as a reference point.
smiles_code=O=c1sc2ccccc2n1CCCCN1CCCCCC1 cat="Condition not met"
smiles_code=CCCC(=O)c1ccc2c(c1)sc(=O)n2CCCCN1CCCCCC1 cat="Condition not met"
smiles_code=CCCc1ccc2c(c1)sc(=O)n2CCCN1CCCCCC1 cat="Condition not met"
smiles_code=O=c1sc2ccccc2n1CCCN1CCCCCC1 cat="Condition not met"
smiles_code=CCCCc1ccc2c(c1)sc(=O)n2CCCCN1CCCCCC1 cat="Condition met"

input: I'd appreciate it if you could check whether CCC(=O)c1ccc2c(c1)sc(=O)n2CCN1CCCC1 has Ratio Ki smaller than 3.
output: Condition not met

input: I'd appreciate it if you could check whether CCCC(=O)c1ccc2c(c1)sc(=O)n2CCCN1CCCCCC1 has Ratio Ki smaller than 3.
output: Condition not met

input: I'd appreciate it if you could check whether CCCc1ccc2c(c1)sc(=O)n2CCCCCCN1CCCCCC1 has Ratio Ki smaller than 3.
output: Condition met

input: I'd appreciate it if you could check whether CCC(=O)c1ccc2c(c1)sc(=O)n2CCCN1CCCCCC1 has Ratio Ki smaller than 3.
output: Condition not met

input: I'd appreciate it if you could check whether CCC(=O)c1ccc2c(c1)sc(=O)n2CCN1CCCCCC1 has Ratio Ki smaller than 3.
output: Condition not met

input: I'd appreciate it if you could check whether O=c1sc2ccccc2n1CCN1CCCC1 has Ratio Ki smaller than 3.
output: Condition not met

input: I'd appreciate it if you could check whether CCCC(=O)c1ccc2c(c1)sc(=O)n2CCCCCCN1CCCCCC1 has Ratio Ki smaller than 3.
output: Condition met

input: I'd appreciate it if you could check whether O=c1sc2ccccc2n1CCN1CCCCCCC1 has Ratio Ki smaller than 3.
output: Condition not met

input: I'd appreciate it if you could check whether CCCc1ccc2c(c1)sc(=O)n2CCCCN1CCCCCC1 has Ratio Ki smaller than 3.
output: Condition met

input: I'd appreciate it if you could check whether CCCCc1ccc2c(c1)sc(=O)n2CCCCCCN1CCCCCC1 has Ratio Ki smaller than 3.
output: Condition met

input: I'd appreciate it if you could check whether CCCc1ccc2c(c1)sc(=O)n2CCN1CCCCCC1 has Ratio Ki smaller than 3.
output: Condition not met

input: I'd appreciate it if you could check whether CCCC(=O)c1ccc2c(c1)sc(=O)n2CCCCCN1CCCCCC1 has Ratio Ki smaller than 3.
output: Condition met

input: I'd appreciate it if you could check whether CCCc1ccc2c(c1)sc(=O)n2CCCCCN1CCCCCC1 has Ratio Ki smaller than 3.
output: Condition met

input: I'd appreciate it if you could check whether CCC(=O)c1ccc2c(c1)sc(=O)n2CCCCCN1CCCCCC1 has Ratio Ki smaller than 3.
output: Condition met

input: I'd appreciate it if you could check whether O=c1sc2ccccc2n1CCCCCN1CCCCCC1 has Ratio Ki smaller than 3.
output: Condition met

input: I'd appreciate it if you could check whether CCC(=O)c1ccc2c(c1)sc(=O)n2CCCCCCN1CCCCCC1 has Ratio Ki smaller than 3.
output: Condition met

input: I'd appreciate it if you could check whether O=c1sc2ccccc2n1CCCCCCN1CCCCCC1 has Ratio Ki smaller than 3.
output: Condition met

input: I'd appreciate it if you could check whether CCCCc1ccc2c(c1)sc(=O)n2CCCN1CCCCCC1 has Ratio Ki smaller than 3.
output: Condition not met

input: I'd appreciate it if you could check whether O=c1sc2cc(CCCF)ccc2n1CCN1CCCCCC1 has Ratio Ki smaller than 3.
output: Condition not met
